targetOrTestSystem: T1, 4H953-bA
T1 chain: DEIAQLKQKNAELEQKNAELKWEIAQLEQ
testProtocol: two-hybrid library CCNG1;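 also: natural log of median RNA to DNA barcode read ratio; higher means stronger binding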
# MET = interaction score below -1 (exclusive); NOT MET = interaction score at/above -1

| binder | className |
| --- | --- |
| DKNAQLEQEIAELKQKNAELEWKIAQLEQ [4H3189-bA] | MET |
| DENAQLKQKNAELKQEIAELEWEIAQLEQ [4H1985-bA] | MET |
| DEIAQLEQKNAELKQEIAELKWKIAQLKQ [4H462-bA] | NOT MET |
| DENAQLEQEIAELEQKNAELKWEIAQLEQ [4H1081-bA] | MET |
| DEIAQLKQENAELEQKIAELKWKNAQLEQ [4H687-bA] | MET |
| DEIAQLKQKNAELEQENAELEWKIAQLKQ [4H918-bA] | NOT MET |
